Hello, the source for this data is patent US20260125360A1, in case you need it.

Tested on: Echinochloa crus-galli (ECHCG)
assay: Pre-emergence herbicide glasshouse test
Type: in vivo
conditions: 250 g/ha, evaluated after 13 days
Procedure: Seeds of a variety of test species are sown in standard soil in pots Amaranthus palmeri (AMAPA), Amaranthus retoflexus (AMARE), Echinochloa crus-galli (ECHCG), Ipomoea hederacea (IPOHE)). […] After 13 days for pre and post-emergence, the test is evaluated for the percentage damage caused to the plant. […]
metric: percentage damage caused to the plant, ECHCG (five-point scale)

Query string: I would be grateful if you could share the reported percentage damage caused to the plant, ECHCG (five-point scale) for `Cc1cnc(Cn2cc(C(F)(F)F)nc2-c2ccc(Cl)nc2)o1` .
Result string: 5 (5=81-100%)

Query string: Also, `Fc1cc(-c2nc(C(F)(F)F)cn2Cc2cc(C3CC3)on2)cnc1Cl` please.
Result string: 1 (1=0-20%)

Query string: // next record `Cc1noc(Cn2cc(C(F)(F)F)nc2-c2cnc(F)c(Cl)c2)n1`
Result string: 3 (3=41-60%)

Query string: Then this molecule: `FC(F)(F)c1cn(Cc2noc(C3CC3)n2)c(-c2ccc(Cl)nc2)n1`
Result string: 5 (5=81-100%)

Query string: Now consider `Cc1cc(Cn2cc(C(F)(F)F)nc2-c2ccc(F)c(F)c2)no1` and answer again.
Result string: 5 (5=81-100%)

Query string: Cool, now `CCCn1nnnc1Cn1cc(C(F)(F)F)nc1-c1ccc(Cl)nc1`
Result string: 1 (1=0-20%)

Query string: Please do the same for `Cc1cc(Cn2cc(C(F)F)nc2-c2cnc(Cl)c(F)c2)no1` as well.
Result string: 4 (4=61-80%)

Query string: Try `Cc1nnc(Cn2cc(C(F)(F)F)nc2-c2ccc(C(F)(F)F)cc2)s1` next.
Result string: 5 (5=81-100%)

Query string: Moving on to the next molecule: `Cc1noc(Cn2cc(C(F)(F)F)nc2-c2ccc(S(C)(=O)=O)cc2)n1`
Result string: 1 (1=0-20%)

Query string: Now try `CCc1cnc(Cn2cc(C(F)(F)F)nc2-c2ccc(Cl)nc2)o1` .
Result string: 5 (5=81-100%)

====

Tested on: Ipomoea hederacea (IPOHE)
assay: Pre-emergence herbicide glasshouse test
Type: in vivo
conditions: 250 g/ha, evaluated after 13 days
metric: percentage damage caused to the plant, IPOHE (five-point scale)

Query string: Please give the measured percentage damage caused to the plant, IPOHE (five-point scale) for this compound: `Cn1cnc(Cn2cc(C(F)F)nc2-c2cnc(Cl)c(F)c2)n1`
Result string: 5 (5=81-100%)

Query string: What do we get for `FC(F)(F)c1cn(Cc2cnc(Cl)s2)c(-c2ccc(Cl)nc2)n1` ?
Result string: 1 (1=0-20%)

Query string: Entry to check: `Cn1ccc(Cn2cc(C(F)(F)F)nc2-c2ccc(S(C)(=O)=O)cc2)n1`
Result string: 3 (3=41-60%)

Query string: Follow-up item: `FC(F)(F)c1cn(Cc2cc(C3CC3)no2)c(-c2ccc(Cl)nc2)n1`
Result string: 4 (4=61-80%)

Query string: Another: `Cn1nnc(Cn2cc(C(F)(F)F)nc2-c2ccc(Cl)nc2)c1C(F)F`
Result string: 4 (4=61-80%)

Query string: # iterate: `Cc1nc(Cn2cc(C(F)(F)F)nc2-c2cnc(Cl)c(F)c2)no1`
Result string: 5 (5=81-100%)

Query string: Cool, now `Fc1cc(-c2nc(C(F)(F)F)cn2Cc2ccc(Cl)s2)cnc1Cl`
Result string: 1 (1=0-20%)

Query string: Same thing, different compound: `Cc1cnc(Cn2cc(C(F)(F)F)nc2-c2ccc(Cl)nc2)s1`
Result string: 5 (5=81-100%)

Query string: Try this compound next: `Cn1cc(Cn2cc(C(F)(F)F)nc2-c2ccc(Cl)nc2)nn1`
Result string: 5 (5=81-100%)

Query string: Lookup `FC(F)c1cc(Cn2cc(C(F)(F)F)nc2-c2ccc(Cl)nc2)no1`
Result string: 5 (5=81-100%)

Query string: For `Cc1noc(C)c1Cn1cc(C(F)(F)F)nc1-c1ccc(C(F)(F)F)cc1` then?
Result string: 1 (1=0-20%)

Query string: Could you do the same for `Cn1nc(Cn2cc(C(F)(F)F)nc2-c2ccc(Cl)nc2)cc1Cl` , please?
Result string: 5 (5=81-100%)

Query string: // same read-out, input: `Cc1cc(Cn2cc(C(F)(F)F)nc2-c2ccc(F)c(F)c2)no1`
Result string: 5 (5=81-100%)

Query string: Also need `N#Cc1ccc(Cn2cc(C(F)(F)F)nc2-c2ccc(C(F)(F)F)cc2)s1` , thanks.
Result string: 2 (2=21-40%)

Query string: Same lookup for `FC(F)(F)c1cn(Cc2ccc(Cl)s2)c(-c2ccc(Cl)nc2)n1` , please.
Result string: 1 (1=0-20%)

Query string: What do we get for `CCn1cc(Cn2cc(C(F)(F)F)nc2-c2ccc(Cl)nc2)nn1` ?
Result string: 5 (5=81-100%)

Query string: Similarly, `Cn1cnc(Cn2cc(C#N)nc2-c2cnc(Cl)c(F)c2)n1` ?
Result string: 5 (5=81-100%)

Query string: Let us now turn to `Fc1ncc(-c2nc(C(F)(F)F)cn2Cc2ccc(Cl)s2)cc1Cl`
Result string: 1 (1=0-20%)

Query string: // query: `CCn1ccc(Cn2cc(C(F)(F)F)nc2-c2ccc(Cl)nc2)n1`
Result string: 5 (5=81-100%)

Query string: Do the same for `Cn1ccc(Cn2cc(C(F)(F)F)nc2-c2cnc(Cl)c(F)c2)n1` please
Result string: 5 (5=81-100%)

Query string: Request: `Cc1nnc(Cn2cc(C(F)(F)F)nc2-c2cnc(F)c(Cl)c2)s1`
Result string: 5 (5=81-100%)

Query string: Consider next the compound `Cc1noc(Cn2cc(C(F)(F)F)nc2-c2ccc(F)c(F)c2)n1` in the same way.
Result string: 5 (5=81-100%)

Query string: Now the compound Cc1nnc(Cn2cc(C(F)(F)F)nc2-c2ccc([S+](C)[O-])cc2)s1 (stereo not shown)
Result string: 4 (4=61-80%)

Query string: Cool, now `Cc1nnc(Cn2cc(C(F)(F)F)nc2-c2ccc(C(F)(F)F)cc2)s1`
Result string: 5 (5=81-100%)

Query string: Input `Cc1nnc(Cn2cc(C(F)(F)F)nc2-c2cnc(Cl)c(F)c2)s1`
Result string: 5 (5=81-100%)

Query string: One more compound: `Cc1cc(Cn2cc(C(F)(F)F)nc2-c2cnc(F)c(Cl)c2)no1`
Result string: 5 (5=81-100%)

Query string: # iterate: `CC(C)c1nnc(Cn2cc(C(F)(F)F)nc2-c2ccc(Cl)nc2)o1`
Result string: 1 (1=0-20%)

Query string: Then what about the compound `Cc1cc(Cn2cc(C(F)(F)F)nc2-c2cnc(F)c(Cl)c2)ns1` ?
Result string: 5 (5=81-100%)

Query string: Please give the result for `Cc1noc(Cn2cc(C(F)(F)F)nc2-c2ccc(C(F)(F)F)cc2)n1` too.
Result string: 3 (3=41-60%)

Query string: Would you mind doing `Cc1cc(Cn2cc(C(F)F)nc2-c2cnc(Cl)c(F)c2)no1` as well?
Result string: 5 (5=81-100%)

Query string: Please give the result for `Fc1ccc(-c2nc(C(F)(F)F)cn2Cc2ccc(Cl)s2)cc1F` too.
Result string: 1 (1=0-20%)

Query string: Queued: `Fc1cc(-c2nc(C(F)(F)F)cn2Cc2cc(C3CC3)on2)cnc1Cl`
Result string: 4 (4=61-80%)

Query string: Now try `CCn1nnc(Cn2cc(C(F)(F)F)nc2-c2ccc(Cl)nc2)n1` .
Result string: 5 (5=81-100%)

Query string: Consider next the compound `Cc1cnc(Cn2cc(C(F)(F)F)nc2-c2ccc(Cl)nc2)o1` in the same way.
Result string: 4 (4=61-80%)
